- targetUnderTest: RIPK2 (Homo sapiens)
- Sequence (O43353 whole entry): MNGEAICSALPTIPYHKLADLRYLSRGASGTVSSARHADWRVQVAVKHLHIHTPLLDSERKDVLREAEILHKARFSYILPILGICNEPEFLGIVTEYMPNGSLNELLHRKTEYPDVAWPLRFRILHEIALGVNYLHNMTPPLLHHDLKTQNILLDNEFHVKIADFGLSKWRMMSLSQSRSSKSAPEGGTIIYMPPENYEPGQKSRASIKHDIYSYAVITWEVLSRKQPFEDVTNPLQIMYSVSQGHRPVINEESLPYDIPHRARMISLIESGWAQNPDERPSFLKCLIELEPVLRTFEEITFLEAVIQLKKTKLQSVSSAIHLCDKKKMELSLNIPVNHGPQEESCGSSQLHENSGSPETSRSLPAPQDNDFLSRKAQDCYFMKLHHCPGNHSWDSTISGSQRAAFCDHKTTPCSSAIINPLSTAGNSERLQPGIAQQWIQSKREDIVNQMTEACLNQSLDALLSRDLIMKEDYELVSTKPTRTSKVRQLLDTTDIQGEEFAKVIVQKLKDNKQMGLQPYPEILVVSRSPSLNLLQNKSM
experimentalEndpoint: IC50

[[record]]
compoundsmiles = "COc1cc2nccc(Oc3ccc(NC(=O)c4cc(S(C)(=O)=O)n(-c5ccc(F)cc5)n4)c(F)c3)c2cc1OC"
targetundertest = "RIPK2 (Homo sapiens)"
recordedvalue = "500 to 1000 nM"


###

- targetUnderTest: PDGFRb (Homo sapiens, UniProt P09619)
- Construct: Nanosyn (contract laboratory that ran the panel)
- Sequence (P09619 33-1106): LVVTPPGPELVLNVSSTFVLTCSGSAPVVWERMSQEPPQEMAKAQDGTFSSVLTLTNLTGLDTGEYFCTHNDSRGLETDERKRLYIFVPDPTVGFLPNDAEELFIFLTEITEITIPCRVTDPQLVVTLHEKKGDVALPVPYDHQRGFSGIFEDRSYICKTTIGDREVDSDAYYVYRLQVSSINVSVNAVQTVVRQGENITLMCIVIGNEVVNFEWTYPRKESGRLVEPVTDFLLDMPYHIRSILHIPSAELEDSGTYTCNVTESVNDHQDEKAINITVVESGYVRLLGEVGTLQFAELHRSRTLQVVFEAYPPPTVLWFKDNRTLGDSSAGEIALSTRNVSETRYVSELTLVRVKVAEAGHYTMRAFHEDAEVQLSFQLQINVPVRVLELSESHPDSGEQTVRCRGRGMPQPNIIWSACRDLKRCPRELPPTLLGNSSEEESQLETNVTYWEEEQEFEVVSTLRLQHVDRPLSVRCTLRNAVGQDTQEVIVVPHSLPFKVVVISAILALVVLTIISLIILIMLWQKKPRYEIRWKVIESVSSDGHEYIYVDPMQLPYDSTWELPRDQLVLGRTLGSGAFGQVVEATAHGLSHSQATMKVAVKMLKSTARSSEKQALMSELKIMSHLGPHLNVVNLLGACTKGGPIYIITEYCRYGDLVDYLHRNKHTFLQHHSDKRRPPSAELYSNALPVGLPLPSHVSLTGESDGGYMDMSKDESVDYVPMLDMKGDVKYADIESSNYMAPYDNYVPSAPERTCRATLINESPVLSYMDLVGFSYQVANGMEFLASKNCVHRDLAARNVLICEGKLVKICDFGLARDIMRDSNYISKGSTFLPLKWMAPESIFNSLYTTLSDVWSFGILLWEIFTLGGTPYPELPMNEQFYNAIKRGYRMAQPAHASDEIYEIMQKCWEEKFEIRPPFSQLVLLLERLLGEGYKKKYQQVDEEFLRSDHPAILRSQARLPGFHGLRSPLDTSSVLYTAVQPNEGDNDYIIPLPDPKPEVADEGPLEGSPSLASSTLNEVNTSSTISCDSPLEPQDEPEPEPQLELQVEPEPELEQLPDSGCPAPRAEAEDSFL
- measurementDescription: Kinase panel enzymatic inhibition assay (Nanosyn)
- Assay type: biochemical
- conditionParameters: compound 5 μM; ATP at Km; 30-minute pre-incubation
experimentalEndpoint: inhibition at 5 µM

[[record]]
compound = "Cc1ccc(NC(=O)c2cc([S+](C)[O-])n(-c3ccc(F)cc3)n2)cc1-c1cc(OCCO)nc(N2CCOCC2)c1 (stereo not shown)"
recordedvalue = "< 79%"

[[record]]
compound = "CNC(=O)c1cc(Oc2ccc(NC(=O)c3cc(S(C)(=O)=O)n(-c4ccc(F)cc4)n3)c(F)c2)ccn1"
recordedvalue = "< 79%"

[[record]]
compound = "Cc1ccc(NC(=O)c2cc([S+](C)[O-])n(-c3ccc(F)cc3)n2)cc1-c1cc(N2CCOCC2)c(=O)n(C)c1 (stereo not shown)"
recordedvalue = "< 79%"

[[record]]
compound = "Cc1ccc(NC(=O)c2cc([S+](C)[O-])n(-c3ccc(F)cc3)n2)cc1Nc1ccc2ncn(C)c(=O)c2c1 (stereo not shown)"
recordedvalue = "< 79%"

[[record]]
compound = "CSc1cc(C(=O)Nc2cc(Oc3ccnc(C(=O)NC4CNC4)c3)ccc2F)nn1-c1ccc(F)cc1"
recordedvalue = "< 79%"

[[record]]
compound = "Cc1ccc(NC(=O)c2cc([S+](C)[O-])n(-c3ccc(F)cc3)n2)cc1C#Cc1cnc2cccnn12 (stereo not shown)"
recordedvalue = "≥ 95%"

[[record]]
compound = "Cc1ccc(NC(=O)c2cc(S(C)(=O)=O)n(-c3ccc(F)cc3)n2)cc1Nc1nccc(-c2cccnc2N)n1"
recordedvalue = "≥ 95%"


###

Target sequence: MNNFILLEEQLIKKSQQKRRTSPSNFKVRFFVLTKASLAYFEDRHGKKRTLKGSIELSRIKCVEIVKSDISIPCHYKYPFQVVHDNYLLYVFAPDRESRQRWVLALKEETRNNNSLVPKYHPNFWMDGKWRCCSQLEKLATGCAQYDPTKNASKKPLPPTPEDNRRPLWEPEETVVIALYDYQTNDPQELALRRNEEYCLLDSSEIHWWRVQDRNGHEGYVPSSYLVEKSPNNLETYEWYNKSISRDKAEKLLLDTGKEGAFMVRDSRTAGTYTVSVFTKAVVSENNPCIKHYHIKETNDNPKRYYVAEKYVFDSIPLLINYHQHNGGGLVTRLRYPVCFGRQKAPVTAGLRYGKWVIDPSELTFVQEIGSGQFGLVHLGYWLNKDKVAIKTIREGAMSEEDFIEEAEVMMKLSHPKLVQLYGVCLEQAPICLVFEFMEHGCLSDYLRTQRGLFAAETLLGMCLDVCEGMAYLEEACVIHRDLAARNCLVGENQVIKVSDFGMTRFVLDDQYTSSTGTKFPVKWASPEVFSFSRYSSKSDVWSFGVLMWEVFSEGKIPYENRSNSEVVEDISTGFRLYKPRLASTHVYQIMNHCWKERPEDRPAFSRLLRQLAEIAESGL
pIC50: −log10 of the molar value.
experimentalEndpoint: pIC50

[[record]]
molecule = "Cc1ccc(NC(=O)c2ccn(-c3ccc(F)cc3)n2)cc1Nc1nccc(-c2cccnc2)n1 [Ex75]"
recordedvalue = "≤ 5.00"

[[record]]
molecule = "COc1cc2nccc(Oc3ccc(NC(=O)c4cc(S(C)(=O)=O)n(-c5ccc(F)cc5)n4)cc3F)c2cc1OC [Ex73]"
recordedvalue = "5.00 to 6.00"

